Where do the numbers come from? From patent US12195427B2.

# SUBJECT OF TEST: MASP-2 CCP2-SP (Homo sapiens (Human), UniProt O00187)
# Sequence (O00187 445-686): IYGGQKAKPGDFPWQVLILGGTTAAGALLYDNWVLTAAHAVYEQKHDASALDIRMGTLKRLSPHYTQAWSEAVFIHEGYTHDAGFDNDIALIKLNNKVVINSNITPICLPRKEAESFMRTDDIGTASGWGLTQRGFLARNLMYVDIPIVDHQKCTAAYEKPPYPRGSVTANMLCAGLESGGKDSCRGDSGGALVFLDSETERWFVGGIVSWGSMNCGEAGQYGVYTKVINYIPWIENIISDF
# Sequence (O00187 364-432 partner): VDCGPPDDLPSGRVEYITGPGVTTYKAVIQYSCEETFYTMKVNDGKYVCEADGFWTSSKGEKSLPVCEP
# ASSAY: MASP-2 co-crystallization, X-ray crystallography and structure analysis (H-bonds, van der Waals contacts)
# Design: unit not given beside the values
# EXPERIMENTAL CONTEXT: Table A5-2 pharmacophore distance, S3/S4 region
d(N2,CA3) values, listed per item

Example entries and their recorded answers appear below.
CC(NC(=O)C(CCc1ccccc1)NCc1ccc(C(=O)N2CCOCC2)cc1)C(=O)NCc1ccc(C(=N)N)cc1.Cl.Cl (centres unmarked) [1153_A]: 3.78
CC(=O)Nc1ccc(CCNC(CCc2ccccc2)C(=O)NC(C)C(=O)NCc2ccc(C(=N)N)cc2)cc1.Cl.Cl (centres unmarked) [1345_1]: 5.17

(Q) // returns reported d(N2,CA3) for input CC(NC(=O)C(CCc1ccccc1)NCCCc1ccc(O)cc1)C(=O)NCc1ccc(C(=N)N)cc1.Cl.Cl (centres unmarked) [1145_A]
(A) 5.59

(Q) // returns reported d(N2,CA3) for input C[C@H](NC(=O)[C@@H](CCc1ccccc1)NCCCc1ccc(O)cc1)C(=O)NCc1ccc(C(=N)N)cc1.Cl.Cl [1145_B]
(A) 5.59

(Q) // returns reported d(N2,CA3) for input CC(=O)Nc1ccc(CCNC(CCc2ccccc2)C(=O)NC(C)C(=O)NCc2ccc(C(=N)N)cc2)cc1.Cl.Cl (centres unmarked) [1345_2]
(A) 5.15

====

# SUBJECT OF TEST: MASP-2 CCP2-SP (Homo sapiens (Human), UniProt O00187)
# ASSAY: MASP-2 co-crystallization, X-ray crystallography and structure analysis (H-bonds, van der Waals contacts);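 for Ligand-pharmacophore element distance, pharmacophore element C7: distance from averaged pharmacophore element to bound ligand; missing value means element absent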
# EXPERIMENTAL CONTEXT: Table A4-1; element C7
Ligand-pharmacophore element distance, pharmacophore element C7 values, listed per item
Please reply with the number alone, leaving off any unit.

Example entries and their recorded answers appear below.
Cc1cc(Cl)cc(CNC(=O)[C@H](C)NC(=O)[C@H]2C[C@H](Cc3ccccc3)CN2)c1O: 0.76
Cc1nc(N)ccc1CNC(=O)[C@H](C)NC(=O)[C@H]1C[C@H](Cc2cccc(Cl)c2)CN1.Cl.Cl [1328_2]: 0
Cc1nc(N)ccc1CNC(=O)[C@H](C)NC(=O)[C@H]1C[C@@H](c2cccc3ccccc23)CCN1.Cl.Cl [1297_2]: 0

(Q) Hi! What's the reported Ligand-pharmacophore element distance, pharmacophore element C7 for C[C@H](NC(=O)[C@H](N)CCc1cccc(Cl)c1)C(=O)NCc1ccc(C(=N)N)cc1 on MASP-2 CCP2-SP (Homo sapiens (Human), UniProt O00187)?
(A) 0

====

# SUBJECT OF TEST: MASP-2 CCP2-SP (Homo sapiens (Human))
# ASSAY: MASP-2 co-crystallization, X-ray crystallography and structure analysis (H-bonds, van der Waals contacts)
# Set-up: unit not given beside the values
# EXPERIMENTAL CONTEXT: Table A2-12
Counter-ions that a name gives are not always drawn.
van der Waals contact distance, SER 654 O to compound atom values, listed per item
Please reply with the number alone, leaving off any unit.

Example entries and their recorded answers appear below.
Cc1nc(N)ccc1CNC(=O)[C@H](C)NC(=O)[C@H]1C[C@H](Cc2ccccc2-c2ccccc2)CN1 [compound 1373, Di-trifluoroacetate salt]: 3.83
Cc1nc(N)ccc1CNC(=O)[C@H](C)NC(=O)[C@H]1C[C@@H](c2cccc3ccccc23)CCN1: 3.51
Cc1cccc([C@H]2CN[C@@H](C(=O)N[C@@H](C)C(=O)NCc3ccc(N)nc3C)C2)c1 [compound 1257, Dihydrochloride]: 3.73
CC(=O)Nc1ccc(CCN[C@H](CCc2ccccc2)C(=O)N[C@@H](C)C(=O)NCc2ccc(C(=N)N)cc2)cc1: 3.75
C[C@H](NC(=O)[C@H]1C[C@@H](c2ccccc2)CCN1)C(=O)NCc1ccc(N)nc1 (stereo in doubt): 3.51

(Q) // returns reported van der Waals contact distance, SER 654 O to compound atom for input CC(=O)Nc1ccc(CCN[C@H](CCc2ccccc2)C(=O)N[C@@H](C)C(=O)NCc2ccc(N)nc2C)cc1 [compound 1368, Dihydrochloride]
(A) 3.85

(Q) // returns reported van der Waals contact distance, SER 654 O to compound atom for input Cc1nc(N)ccc1CNC(=O)[C@H](C)NC(=O)c1cc(Cc2ccccc2)n[nH]1
(A) 3.87

(Q) // returns reported van der Waals contact distance, SER 654 O to compound atom for input N=C(N)c1ccc(CNC(=O)C(CF)NC(=O)[C@H](N)CCc2ccccc2)cc1 (stereo partly shown) [compound 1050, Dihydrochloride]
(A) 3.72

(Q) // returns reported van der Waals contact distance, SER 654 O to compound atom for input C[C@H](NC(=O)[C@H]1C[C@@H](c2ccccc2)CN1)C(=O)NCc1ccc2c(N)nccc2c1
(A) 3.57

(Q) // returns reported van der Waals contact distance, SER 654 O to compound atom for input Cc1nc(N)ccc1CNC(=O)[C@H](C)NC(=O)[C@H]1C[C@@H](c2ccccc2)CCN1C
(A) 3.85

====

Ligand-pharmacophore element distance, pharmacophore element CA2 values, listed per item
# SUBJECT OF TEST: MASP-2 CCP2-SP (Homo sapiens (Human), UniProt O00187)
# ASSAY: MASP-2 co-crystallization, X-ray crystallography and structure analysis (H-bonds, van der Waals contacts);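 for Ligand-pharmacophore element distance, pharmacophore element CA2: distance from averaged pharmacophore element to bound ligand; missing value means element absent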
# EXPERIMENTAL CONTEXT: Table A4-1; element CA2
Please reply with the number alone, leaving off any unit.

Cc1nc(N)ccc1CNC(=O)C(C)NC(=O)C1CC(c2cccc3ccccc23)CCN1.Cl.Cl (stereo not shown) [1297_6]: 0.24
Cc1nc(N)ccc1CNC(=O)[C@H](C)NC(=O)[C@H]1C[C@@H](c2ccccc2)CCN1C [compound 1441]: 0.64
Cc1nc(N)ccc1CNC(=O)C(C)NC(=O)C1CC(c2cccc3ccccc23)CCN1.Cl.Cl (stereo not shown) [1297_3]: 0.22
C[C@H](NC(=O)[C@H]1Cc2c([nH]c3ccccc23)CN1)C(=O)NCc1ccc(C(=N)N)cc1.Cl.Cl [1097_1]: 0
C[C@H](NC(=O)[C@H]1C[C@@H](c2ccccc2)CCN1)C(=O)NCc1ccc(C(=N)N)cc1 (stereo in doubt) [compound 1065]: 0.1

(Q) Hi! What's the reported Ligand-pharmacophore element distance, pharmacophore element CA2 for CC(NC(=O)C1CC(Cc2ccccc2)CN1)C(=O)NCc1cnc2c(c1)c(Cl)cn2C.Cl.Cl (stereo not shown) [1450_B] on MASP-2 CCP2-SP (Homo sapiens (Human), UniProt O00187)?
(A) 1.24

(Q) Hi! What's the reported Ligand-pharmacophore element distance, pharmacophore element CA2 for C[C@H](NC(=O)[C@H]1C[C@@H](c2ccccc2)CCN1)C(=O)NCc1cc(Cl)ccc1O.Cl [1078_9] on MASP-2 CCP2-SP (Homo sapiens (Human), UniProt O00187)?
(A) 0.56

====

# SUBJECT OF TEST: MASP-2 CCP2-SP (Homo sapiens (Human), UniProt O00187)
# ASSAY: MASP-2 co-crystallization, X-ray crystallography and structure analysis (H-bonds, van der Waals contacts)
# EXPERIMENTAL CONTEXT: Table A6-1 pharmacophore angle; all compounds with protonatable center N1 except Methyl-amino-pyridine
Where a name gives a salt, the structure may show the parent alone.
A(N1, CA1, O1) a) values, listed per item
Please reply with the number alone, leaving off any unit.

C[C@H](NC(=O)[C@H](N)CCc1cc(Cl)cc(Cl)c1)C(=O)NCc1ccc(C(=N)N)cc1: 162.73
C[C@H](NC(=O)C1C[C@@H](c2ccccc2)CCN1)C(=O)NCc1ccc(C(=N)N)cc1 (stereo in doubt): 167.99
N=C(N)c1ccc(CNC(=O)[C@@H]2CCN2C(=O)[C@H]2Cc3ccccc3CN2)cc1: 160.69
N=C(N)c1ccc(CNC(=O)C(CF)NC(=O)[C@H](N)CCc2ccccc2)cc1 (stereo partly shown) [compound 1050, Dihydrochloride]: 160.78
C[C@H](NC(=O)[C@H]1Cc2c([nH]c3ccccc23)CN1)C(=O)NCc1ccc(C(=N)N)cc1.Cl.Cl [1097_1]: 162.99

(Q) Hi! What's the reported A(N1, CA1, O1) a) for C[C@H](NC(=O)[C@H]1C[C@H](Cc2ccccc2)CN1)C(=O)NCc1ccc(C(=N)N)cc1.Cl.Cl [1306_1] on MASP-2 CCP2-SP (Homo sapiens (Human), UniProt O00187)?
(A) 158.44

(Q) Hi! What's the reported A(N1, CA1, O1) a) for N=C(N)c1ccc(CNC(=O)[C@@H]2CCN2C(=O)[C@H](NCC(=O)O)C2Cc3ccccc3C2)cc1 on MASP-2 CCP2-SP (Homo sapiens (Human), UniProt O00187)?
(A) 164.78

====

# SUBJECT OF TEST: MASP-2 CCP2-SP (Homo sapiens (Human))
# ASSAY: MASP-2 co-crystallization, X-ray crystallography and structure analysis (H-bonds, van der Waals contacts)
# Parameters: unit not given beside the values
# EXPERIMENTAL CONTEXT: Table A5-1 pharmacophore: distance between elements, S2/S1 region
d(CA6,O2) values, listed per item
Please reply with the number alone, leaving off any unit.

CNC(=O)c1ccc2c(=O)n(Cc3ccccc3)c(=O)n(CC(=O)NCc3ccc(C(=N)N)cc3)c2c1 [compound 2018]: 2.50
O=c1oc(-c2ccccc2[N+](=O)[O-])nc2ccccc12 [compound 14]: 3.51
C[C@H](NC(=O)[C@@H](CCc1ccccc1)NCc1ccc(N2CCOCC2)cc1)C(=O)NCc1ccc(C(=N)N)cc1 [compound 1149]: 8.45

(Q) // returns reported d(CA6,O2) for input Cc1cnc(NCCc2ccccc2)c(=O)n1CC(=O)NCc1ccc2nc(N)[nH]c2c1 [compound 1492]
(A) 1.13
